target: ERK1 (Homo sapiens, UniProt P27361)
Sequence (P27361 whole entry): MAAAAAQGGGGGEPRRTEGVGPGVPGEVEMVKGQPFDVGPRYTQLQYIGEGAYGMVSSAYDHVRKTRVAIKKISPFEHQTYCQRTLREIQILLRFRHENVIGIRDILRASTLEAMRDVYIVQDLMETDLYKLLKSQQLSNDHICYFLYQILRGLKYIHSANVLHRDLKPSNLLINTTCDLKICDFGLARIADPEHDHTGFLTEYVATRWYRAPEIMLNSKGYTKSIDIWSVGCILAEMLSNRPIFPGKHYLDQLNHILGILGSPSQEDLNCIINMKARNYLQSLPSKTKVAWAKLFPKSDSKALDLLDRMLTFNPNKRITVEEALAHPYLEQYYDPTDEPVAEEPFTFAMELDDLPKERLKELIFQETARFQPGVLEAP
recorded-metric: IC50

Incoming: State, in one line, measured IC50 of N[C@H]1CC[C@H](Nc2cc(-c3cccc(NCc4cccc(F)c4)n3)c(Cl)cn2)CC1
Outgoing: > 10 µM

----------
molecular target: CDK9-CycT1 (Homo sapiens, UniProt P50750); assay: In vitro kinase assay with CDK7tide, effect of BRD4 on response to i-CDK9; format: biochemical; details: CDK9/CycT1 + WT BRD4
Sequence (P50750 whole entry): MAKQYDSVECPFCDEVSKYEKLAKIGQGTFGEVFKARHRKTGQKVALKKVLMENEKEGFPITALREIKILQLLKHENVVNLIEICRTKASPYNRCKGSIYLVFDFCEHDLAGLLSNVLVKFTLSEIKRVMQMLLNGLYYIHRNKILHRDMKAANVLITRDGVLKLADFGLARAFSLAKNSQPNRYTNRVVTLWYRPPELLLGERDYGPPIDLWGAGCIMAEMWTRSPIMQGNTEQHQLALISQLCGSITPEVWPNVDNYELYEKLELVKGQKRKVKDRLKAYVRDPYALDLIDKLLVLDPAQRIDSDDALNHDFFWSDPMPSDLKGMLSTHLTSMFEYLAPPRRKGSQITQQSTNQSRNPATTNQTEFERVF
Sequence (O60563 whole entry partner): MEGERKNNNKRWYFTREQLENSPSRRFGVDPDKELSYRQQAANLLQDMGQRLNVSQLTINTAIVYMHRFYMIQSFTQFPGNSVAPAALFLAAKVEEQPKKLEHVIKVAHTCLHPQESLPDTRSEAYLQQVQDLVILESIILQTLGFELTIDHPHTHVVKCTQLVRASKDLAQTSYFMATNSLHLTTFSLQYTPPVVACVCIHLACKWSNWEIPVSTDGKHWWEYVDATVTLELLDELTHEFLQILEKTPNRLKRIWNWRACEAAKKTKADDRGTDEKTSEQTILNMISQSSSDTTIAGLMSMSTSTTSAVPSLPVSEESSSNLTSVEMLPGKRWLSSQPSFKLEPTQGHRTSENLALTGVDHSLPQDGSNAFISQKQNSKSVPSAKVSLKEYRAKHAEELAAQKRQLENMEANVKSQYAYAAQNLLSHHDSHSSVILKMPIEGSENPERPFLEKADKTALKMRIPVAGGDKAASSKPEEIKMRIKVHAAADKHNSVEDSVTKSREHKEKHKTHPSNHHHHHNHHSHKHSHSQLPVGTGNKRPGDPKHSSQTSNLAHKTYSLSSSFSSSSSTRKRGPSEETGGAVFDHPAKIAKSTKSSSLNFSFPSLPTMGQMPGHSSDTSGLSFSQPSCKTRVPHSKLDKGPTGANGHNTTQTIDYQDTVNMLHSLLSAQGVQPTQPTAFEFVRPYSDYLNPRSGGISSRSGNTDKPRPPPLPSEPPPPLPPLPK
recorded-metric: IC50 (nM)
Numbers only, in nM.

Incoming: State, in one line, measured IC50 of N[C@H]1CC[C@H](Nc2cc(-c3cccc(NCc4cccc(F)c4)n3)c(Cl)cn2)CC1 [i-CDK9]
Outgoing: 14.7
